Tested on: SK-BR-3 (breast cancer)
testSummary: In vitro cytotoxicity of camptothecin analogues (CellTiter-Glo)
Format: cell-based
studyConditions: Homo sapiens, SK-BR-3, 96 h, read-out: pIC50 SKBR-3 (converted)
Note to self: IC50 under 3 nM means 1, ties and anything higher get 0.

A selection of reference data follows.
molecule | targetEntity | classAssignment
CC[C@@]1(O)C(=O)OCc2c1cc1n(c2=O)Cc2c-1nc1cc(F)c(C)cc1c2CNS(=O)(=O)c1ccc(N)cc1 | SK-BR-3 (breast cancer) | 0
CC[C@@]1(O)C(=O)OCc2c1cc1n(c2=O)Cc2c-1nc1cc(F)c(OC)cc1c2CNC(=O)NCc1ccc(N)cc1 | SK-BR-3 (breast cancer) | 0

[in] API: query returns whether the molecule falls strictly under 3 nM in IC50. Query: CC[C@@]1(O)C(=O)OCc2c1cc1n(c2=O)Cc2c-1nc1cc(F)c(C)cc1c2CN1C2CCC1(CO)CC2
[out] 1

[in] API: query returns whether the molecule falls strictly under 3 nM in IC50. Query: CC[C@@]1(O)C(=O)OCc2c1cc1n(c2=O)Cc2c-1nc1cc(F)c(C)cc1c2CN1CCO[C@@H](CO)C1
[out] 1

[in] API: query returns whether the molecule falls strictly under 3 nM in IC50. Query: CC[C@@]1(O)C(=O)OCc2c1cc1n(c2=O)Cc2c-1nc1cc(F)c(N)cc1c2CN=[N+]=[N-]
[out] 0

[in] API: query returns whether the molecule falls strictly under 3 nM in IC50. Query: CC[C@@]1(O)C(=O)OCc2c1cc1n(c2=O)Cc2c-1nc1cc(F)c(C)cc1c2CNS(=O)(=O)c1ccccc1
[out] 1

[in] API: query returns whether the molecule falls strictly under 3 nM in IC50. Query: CC[C@@]1(O)C(=O)OCc2c1cc1n(c2=O)Cc2c-1nc1cc(F)c(C)cc1c2CN1CCN(c2ccc(N)cc2)CC1
[out] 0

* * *

System: SK-BR-3 (breast cancer)
testSummary: In vitro cytotoxicity of camptothecin analogues (CellTiter-Glo)
Type: cell-based
studyConditions: Homo sapiens, SK-BR-3, 96 h, read-out: pIC50 SKBR-3 (converted)
propertyLabel: IC50 (nM)
Expressed in nM, but write only the number.

compound | unitDescriptor | IC50
CC[C@@]1(O)C(=O)OCc2c1cc1n(c2=O)Cc2c-1nc1cc(F)c(OC)cc1c2CNS(=O)(=O)c1ccc(N)cc1 | nM | 5.25
CC[C@@]1(O)C(=O)OCc2c1cc1n(c2=O)Cc2c-1nc1cc(F)c(C)cc1c2CNS(N)(=O)=O | nM | 1.05
CC[C@@]1(O)C(=O)OCc2c1cc1n(c2=O)Cc2c-1nc1cc(F)c(C)cc1c2CN1CCSCC1CO (stereo partly shown) | nM | 0.107

[in] Report measured IC50; entry is CC[C@@]1(O)C(=O)OCc2c1cc1n(c2=O)Cc2c-1nc1cc(F)c(C)cc1c2CNS(C)(=O)=O
[out] 1.12

Cited source: patent US20250295799A1
